- assay-target: Nuclear receptor subfamily 1 group I member 3 (Homo sapiens) (UniProt Q14994)
- Sequence (Q14994 whole entry, looked up): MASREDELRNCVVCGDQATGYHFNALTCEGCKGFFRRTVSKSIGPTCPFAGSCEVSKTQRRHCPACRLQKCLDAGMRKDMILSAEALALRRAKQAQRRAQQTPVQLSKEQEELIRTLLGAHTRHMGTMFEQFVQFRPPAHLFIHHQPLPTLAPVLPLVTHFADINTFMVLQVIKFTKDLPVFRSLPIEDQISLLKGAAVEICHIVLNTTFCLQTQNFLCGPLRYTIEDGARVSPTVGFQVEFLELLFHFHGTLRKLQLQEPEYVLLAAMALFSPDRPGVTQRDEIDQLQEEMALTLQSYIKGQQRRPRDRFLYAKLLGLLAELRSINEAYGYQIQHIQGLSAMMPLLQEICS
- measurement-protocol: qHTS assay to identify small molecule agonists of the constitutive androstane receptor (CAR) signaling pathway (AID 1224839); note: nearly all actives have a fitted effect of over 15% in size;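 for activation: HepG2 cells stably carrying human CAR and a CYP2B6 luciferase reporter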
- assay-setup: HepG2 hCAR CYP2B6-luciferase, agonist mode, 24 h; series mostly up to 92.4 µM
Results filed as inconclusive are left out. Activity calls are given as the source filed them. Calls come from the whole dose curve; as a rule, active = well fitted activation curve with a large enough effect in the repeat runs; inconclusive = weak or mixed curves; inactive = no such curve, though single readings can be large or run the other way.
Allowed answers: true (active), false (inactive)

Nc1ccccc1C(=O)OC/C=C/c1ccccc1; true
N#Cc1c(-c2ccc(Cl)cc2)[nH]c(C(F)(F)F)c1Br; false

Turning to the following molecule.
Query: What did the test return for `C=COCCCl` ?
Response: false
